Attribute: Ki
Target: CB2 cannabinoid receptor (Mus musculus, UniProt P47936)
Sequence (P47936 whole entry): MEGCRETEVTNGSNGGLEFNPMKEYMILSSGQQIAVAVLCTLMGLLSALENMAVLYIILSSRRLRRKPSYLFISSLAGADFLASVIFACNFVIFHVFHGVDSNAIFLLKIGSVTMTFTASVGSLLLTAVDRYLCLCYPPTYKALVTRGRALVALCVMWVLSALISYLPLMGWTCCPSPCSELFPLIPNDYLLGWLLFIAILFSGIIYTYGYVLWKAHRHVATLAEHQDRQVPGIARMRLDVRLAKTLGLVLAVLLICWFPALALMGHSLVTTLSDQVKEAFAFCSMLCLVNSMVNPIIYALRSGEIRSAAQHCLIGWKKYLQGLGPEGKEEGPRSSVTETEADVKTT
Assay: biochemical
Type: binding
Conditions: Table 9; mouse spleen membranes; read-out: Receptor Affinities Ki (nM) CB2

[
  {
    "SMILES_REPRESENTATION": "Cc1c(C(=O)NN2CCCCC2)nn(-c2ccc(Cl)cc2Cl)c1-c1ccc(CCC#N)cc1",
    "TARGET_OR_SYSTEM": "CB2 cannabinoid receptor (Mus musculus, UniProt P47936)",
    "Ki": "2290 nM"
  },
  {
    "SMILES_REPRESENTATION": "Cc1c(C(=O)NN2CCCCC2)nn(-c2ccc(Cl)cc2Cl)c1-c1ccc(CCCCO)cc1",
    "TARGET_OR_SYSTEM": "CB2 cannabinoid receptor (Mus musculus, UniProt P47936)",
    "Ki": "43 nM"
  },
  {
    "SMILES_REPRESENTATION": "Cc1c(C(=O)N(C)C2CCCCC2)nc(-c2ccc(Cl)cc2Cl)n1-c1ccc(CCCO)cc1",
    "TARGET_OR_SYSTEM": "CB2 cannabinoid receptor (Mus musculus, UniProt P47936)",
    "Ki": "290 nM"
  },
  {
    "SMILES_REPRESENTATION": "O=C(NN1CCCCC1)c1nn(-c2ccc(Cl)cc2Cl)c(-c2ccc(CCCO)cc2)c1CO",
    "TARGET_OR_SYSTEM": "CB2 cannabinoid receptor (Mus musculus, UniProt P47936)",
    "Ki": "66 nM"
  },
  {
    "SMILES_REPRESENTATION": "Cc1c(C(=O)NN2CCCCC2)nn(-c2ccc(Cl)cc2Cl)c1-c1ccc(CCCCN=[N+]=[N-])cc1",
    "TARGET_OR_SYSTEM": "CB2 cannabinoid receptor (Mus musculus, UniProt P47936)",
    "Ki": "177 nM"
  },
  {
    "SMILES_REPRESENTATION": "O=C(NN1CCCCC1)c1nn(-c2ccc(Cl)cc2Cl)c(-c2ccc(CCCCO)cc2)c1CO",
    "TARGET_OR_SYSTEM": "CB2 cannabinoid receptor (Mus musculus, UniProt P47936)",
    "Ki": "7540 nM"
  },
  {
    "SMILES_REPRESENTATION": "Cc1c(C(=O)NN2CCCCC2)nn(-c2ccc(Cl)cc2Cl)c1-c1ccc(CCCO)cc1",
    "TARGET_OR_SYSTEM": "CB2 cannabinoid receptor (Mus musculus, UniProt P47936)",
    "Ki": "230 nM"
  }
]

* * *

Biological target: CB1 cannabinoid receptor (Rattus norvegicus, UniProt P20272)
Construct: membranes were prepared from rat forebrain membranes; from tissue; host or cells: rat forebrain membranes
Sequence (P20272 whole entry): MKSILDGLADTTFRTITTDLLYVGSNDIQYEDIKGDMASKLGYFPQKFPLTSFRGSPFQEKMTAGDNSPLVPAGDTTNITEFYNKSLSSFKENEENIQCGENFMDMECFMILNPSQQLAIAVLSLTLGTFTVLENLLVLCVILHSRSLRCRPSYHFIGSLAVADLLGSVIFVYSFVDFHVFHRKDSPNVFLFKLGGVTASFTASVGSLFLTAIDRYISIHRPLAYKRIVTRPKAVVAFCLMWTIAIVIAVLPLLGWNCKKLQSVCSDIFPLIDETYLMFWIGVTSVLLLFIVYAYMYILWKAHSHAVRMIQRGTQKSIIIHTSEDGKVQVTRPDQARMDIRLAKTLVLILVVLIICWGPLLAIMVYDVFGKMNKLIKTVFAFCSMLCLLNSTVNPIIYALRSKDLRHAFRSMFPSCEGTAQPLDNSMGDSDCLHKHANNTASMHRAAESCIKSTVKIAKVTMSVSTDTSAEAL
Experiment: biochemical
Format: binding
Conditions: Table 6; rat forebrain membranes, 0.8 nM [3H] CP-55,940; read-out: CB1 Ki
Procedure: Some of the inventive analogs were tested for CB2 receptor binding affinity and for CB1 receptor affinity (to determine selectivity). […] The lower the Ki value the higher the binding affinity. […] The treated membranes were subsequently used in the binding assay described below. […] Radioactivity was detected using MicroScint 20 scintillation cocktail added directly to the dried filterplates, and the filterplates were counted using a Packard Instruments Top-Count. […]

[
  {
    "COMPOUND": "Cc1c(C(=O)N(C)C2CCCCC2)nc(-c2ccc(Cl)cc2Cl)n1-c1ccc(-c2nnn[nH]2)cc1 [Compound 1-22]",
    "TARGET_OR_SYSTEM": "CB1 cannabinoid receptor (Rattus norvegicus, UniProt P20272)",
    "Ki, nM": 359
  },
  {
    "COMPOUND": "CN(C(=O)c1nc(-c2ccc(Cl)cc2Cl)n(-c2ccc(-c3nnn[nH]3)cc2)c1CO)C1CCCCC1 [Compound 1-25]",
    "TARGET_OR_SYSTEM": "CB1 cannabinoid receptor (Rattus norvegicus, UniProt P20272)",
    "Ki, nM": 5210
  },
  {
    "COMPOUND": "Cn1nnnc1-c1ccc(-n2c(-c3ccc(Cl)cc3Cl)nc(C(=O)NN3CCCCC3)c2CO)cc1 [Compound 1-20]",
    "TARGET_OR_SYSTEM": "CB1 cannabinoid receptor (Rattus norvegicus, UniProt P20272)",
    "Ki, nM": 400
  },
  {
    "COMPOUND": "CN(C(=O)c1nc(-c2ccc(Cl)cc2Cl)n(-c2ccc(-c3nnnn3C)cc2)c1CO)C1CCCCC1 [Compound 1-26]",
    "TARGET_OR_SYSTEM": "CB1 cannabinoid receptor (Rattus norvegicus, UniProt P20272)",
    "Ki, nM": 101
  },
  {
    "COMPOUND": "Cc1c(C(=O)NN2CCCCC2)nc(-c2ccc(Cl)cc2Cl)n1-c1ccc(-c2nnnn2C)cc1 [Compound 1-17]",
    "TARGET_OR_SYSTEM": "CB1 cannabinoid receptor (Rattus norvegicus, UniProt P20272)",
    "Ki, nM": 2290
  },
  {
    "COMPOUND": "O=C(NN1CCCCC1)c1nc(-c2ccc(Cl)cc2Cl)n(-c2ccc(-c3nnn[nH]3)cc2)c1CO [Compound 1-19]",
    "TARGET_OR_SYSTEM": "CB1 cannabinoid receptor (Rattus norvegicus, UniProt P20272)",
    "Ki, nM": 5760
  },
  {
    "COMPOUND": "Cc1c(C(=O)NN2CCCCC2)nc(-c2ccc(Cl)cc2Cl)n1-c1ccc(-c2nnn[nH]2)cc1 [Compound 1-16]",
    "TARGET_OR_SYSTEM": "CB1 cannabinoid receptor (Rattus norvegicus, UniProt P20272)",
    "Ki, nM": 404
  }
]

* * *

Biological target: CB2 cannabinoid receptor (Mus musculus, UniProt P47936)
Test: biochemical
Assay type: binding
Conditions: Table 6; mouse spleen membranes, [3H] CP-55,940; read-out: CB2 Ki
Attribute: Ki

[
  {
    "SMILES_REPRESENTATION": "O=C(Nc1nc(-c2ccc(Cl)cc2Cl)n(-c2ccc(I)cc2)c1CBr)NC1CCCCC1",
    "Ki, nM": 75.3
  },
  {
    "SMILES_REPRESENTATION": "O=C(NN1CCCCC1)c1nc(-c2ccc(Cl)cc2Cl)n(-c2ccc(-c3nnn[nH]3)cc2)c1CO",
    "Ki, nM": 22300
  },
  {
    "SMILES_REPRESENTATION": "O=C(NC1CCCCC1)c1nc(-c2ccc(Cl)cc2Cl)n(-c2ccc(I)cc2)c1CO",
    "Ki, nM": 22400
  },
  {
    "SMILES_REPRESENTATION": "Cc1c(C(=O)NN2CCCCC2)nc(-c2ccc(Cl)cc2Cl)n1-c1ccc(C#CCCC#N)cc1",
    "Ki, nM": 271
  },
  {
    "SMILES_REPRESENTATION": "[N-]=[N+]=NCc1c(C(=O)NN2CCCCC2)nc(-c2ccc(Cl)cc2Cl)n1-c1ccc(Br)cc1",
    "Ki, nM": 954
  },
  {
    "SMILES_REPRESENTATION": "CN(C(=O)c1nc(-c2ccc(Cl)cc2Cl)n(-c2ccc(Br)cc2)c1CO)C1CCCCC1",
    "Ki, nM": 3780
  },
  {
    "SMILES_REPRESENTATION": "CN(C(=O)c1nc(-c2ccc(Cl)cc2Cl)n(-c2ccc(-c3nnnn3C)cc2)c1CO)C1CCCCC1",
    "Ki, nM": 1320
  }
]

* * *

Biological target: CB1 cannabinoid receptor (Rattus norvegicus, UniProt P20272)
Construct: membranes were prepared from rat forebrain membranes; from tissue; host or cells: rat forebrain membranes
Assay: biochemical
Assay type: binding
Conditions: CB1 Ki, Table 6; rat forebrain membranes, 0.8 nM [3H] CP-55,940
PARAMETER_MEASURED: Ki (nM)

[
  {
    "SMILES_REPRESENTATION": "O=C(NN1CCCCC1)c1nc(-c2ccc(Cl)cc2Cl)n(-c2ccc(Br)cc2)c1CO",
    "VALUE": 10.8
  },
  {
    "SMILES_REPRESENTATION": "CN(C(=O)c1nc(-c2ccc(Cl)cc2Cl)n(-c2ccc(I)cc2)c1CO)C1CCCCC1",
    "VALUE": 6.4
  },
  {
    "SMILES_REPRESENTATION": "Cc1c(C(=O)NN2CCCCC2)nc(-c2ccc(Cl)cc2Cl)n1-c1ccc(-c2nnn(C)n2)cc1",
    "VALUE": 6.5
  }
]

* * *

Biological target: CB1 cannabinoid receptor (Rattus norvegicus, UniProt P20272)
Construct: membranes were prepared from rat forebrain membranes; from tissue; host or cells: rat forebrain membranes
Experiment: biochemical
Assay type: binding
Conditions: Table 10; CB1 over CB2 binding selectivity (ratio of Ki)
Procedure: Some of the inventive analogs were tested for CB2 receptor binding affinity and for CB1 receptor affinity (to determine selectivity). […] The lower the Ki value the higher the binding affinity. […] The treated membranes were subsequently used in the binding assay described below. […] Radioactivity was detected using MicroScint 20 scintillation cocktail added directly to the dried filterplates, and the filterplates were counted using a Packard Instruments Top-Count. […]
Attribute: Selectivity CB1

[
  {
    "SMILES_REPRESENTATION": "Cc1c(C(=O)NN2CCCCC2)nn(-c2ccc(Cl)cc2Cl)c1-c1ccc(C#CC2(O)CCCC2)cc1",
    "TARGET_OR_SYSTEM": "CB1 cannabinoid receptor (Rattus norvegicus, UniProt P20272)",
    "Selectivity CB1": 1.5
  },
  {
    "SMILES_REPRESENTATION": "Cc1c(C(=O)NN2CCCCC2)nn(-c2ccc(Cl)cc2Cl)c1-c1ccc(C#CC2(O)CCCCC2)cc1",
    "TARGET_OR_SYSTEM": "CB1 cannabinoid receptor (Rattus norvegicus, UniProt P20272)",
    "Selectivity CB1": 3.5
  },
  {
    "SMILES_REPRESENTATION": "Cc1c(C(=O)NN2CCCCC2)nn(-c2ccc(Cl)cc2Cl)c1-c1ccc(C#CCN)cc1.Cl",
    "TARGET_OR_SYSTEM": "CB1 cannabinoid receptor (Rattus norvegicus, UniProt P20272)",
    "Selectivity CB1": 1
  },
  {
    "SMILES_REPRESENTATION": "Cc1c(C(=O)NN2CCCCC2)nn(-c2ccc(Cl)cc2Cl)c1-c1ccc(C#CCN(C)C)cc1",
    "TARGET_OR_SYSTEM": "CB1 cannabinoid receptor (Rattus norvegicus, UniProt P20272)",
    "Selectivity CB1": 1.5
  },
  {
    "SMILES_REPRESENTATION": "Cc1c(C(=O)NN2CCCCC2)nn(-c2ccc(Cl)cc2Cl)c1-c1ccc(C#CCCCCN)cc1",
    "TARGET_OR_SYSTEM": "CB1 cannabinoid receptor (Rattus norvegicus, UniProt P20272)",
    "Selectivity CB1": 17
  },
  {
    "SMILES_REPRESENTATION": "Cc1c(C(=O)NN2CCCCC2)nn(-c2ccc(Cl)cc2Cl)c1-c1ccc(C#CCCCN)cc1",
    "TARGET_OR_SYSTEM": "CB1 cannabinoid receptor (Rattus norvegicus, UniProt P20272)",
    "Selectivity CB1": 20
  },
  {
    "SMILES_REPRESENTATION": "Cc1c(C(=O)NN2CCCCC2)nn(-c2ccc(Cl)cc2Cl)c1-c1ccc(C#CCN(C)C)cc1.Cl",
    "TARGET_OR_SYSTEM": "CB1 cannabinoid receptor (Rattus norvegicus, UniProt P20272)",
    "Selectivity CB1": 2.2
  },
  {
    "SMILES_REPRESENTATION": "Cc1c(C(=O)NN2CCCCC2)nn(-c2ccc(Cl)cc2Cl)c1-c1ccc(C#CCN)cc1",
    "TARGET_OR_SYSTEM": "CB1 cannabinoid receptor (Rattus norvegicus, UniProt P20272)",
    "Selectivity CB1": 2
  },
  {
    "SMILES_REPRESENTATION": "Cc1c(C(=O)NN2CCCCC2)nn(-c2ccc(Cl)cc2Cl)c1-c1ccc(C#CCCN)cc1",
    "TARGET_OR_SYSTEM": "CB1 cannabinoid receptor (Rattus norvegicus, UniProt P20272)",
    "Selectivity CB1": 36
  },
  {
    "SMILES_REPRESENTATION": "Cc1c(C(=O)NN2CCCCC2)nn(-c2ccc(Cl)cc2Cl)c1-c1ccc(C#Cc2ccccn2)cc1",
    "TARGET_OR_SYSTEM": "CB1 cannabinoid receptor (Rattus norvegicus, UniProt P20272)",
    "Selectivity CB1": 1
  },
  {
    "SMILES_REPRESENTATION": "Cc1c(C(=O)NN2CCCCC2)nn(-c2ccc(Cl)cc2Cl)c1-c1ccc(C#Cc2cccnc2)cc1",
    "TARGET_OR_SYSTEM": "CB1 cannabinoid receptor (Rattus norvegicus, UniProt P20272)",
    "Selectivity CB1": 3.6
  }
]
